# key: entry, value: NADPH fluorescence slope
# Target Under Test: Voltage-gated potassium channel subunit beta-2 (Rattus norvegicus)
# Assay Summary: enhancers of rat Kvbeta2 NADPH turnover – biochemical, NADPH fluorescence, primary screen (AID 623);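 further: fluorescence intensity change per second fitted from 20 to 320 s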
# Condition Description: Recombinant KvBeta, NADPH fluorescence decrease slope, 10 min; at 10 µM; hits give low values
Readout Name: NADPH fluorescence slope

>>> observed_measurement("Cc1cc(C)c2cc(CN(CC3CCCO3)C(=O)NC3CCCCC3)c(=O)[nH]c2c1 (stereo unspecified)")
"-5.6e-05"
>>> observed_measurement("O=c1c2nnn(Cc3ccccc3)c2ncn1-c1ccccc1")
"-8.2e-05"
>>> observed_measurement("O=C(c1ccco1)N1CCN(C(=O)C2CCN(S(=O)(=O)c3cccc4nsnc34)CC2)CC1")
0.000197
>>> observed_measurement("C=CCn1c(SCc2ccc3nonc3c2)nnc1-c1cccs1")
"4.9e-05"
>>> observed_measurement("CCn1c(=N)n(CC(O)COc2cccc(C)c2)c2ccccc21 (stereo unspecified)")
"4.3e-05"
>>> observed_measurement("CCOC(=O)CSc1nc2ccccc2c(=O)n1NC(=O)c1ccccc1")
"3.6e-06"
>>> observed_measurement("Cn1c(Cc2cccs2)nnc1SCC(=O)N1CCc2ccccc21")
"-6.1e-05"
>>> observed_measurement("N=c1c(C(=O)NCc2ccc(F)cc2)cc2c(=O)n3ccccc3nc2n1CCCN1CCOCC1")
"-1e-05"
>>> observed_measurement("Cc1nc2sc(C(c3cccc(F)c3)N3CCN(C(=O)c4ccco4)CC3)c(O)n2n1 (stereo unspecified)")
"-1.4e-05"
>>> observed_measurement("COc1ccc(C(=O)NCC(=O)n2nc(C)cc2C)cc1OC")
"-1.8e-05"
>>> observed_measurement("COc1ccccc1NC(=O)c1ccc(NC(=O)CSc2nnnn2C)cc1")
"-7.2e-05"
>>> observed_measurement("Cc1cc(NC(=O)Cn2cnc3c2c(=O)n(C)c(=O)n3C)n(-c2ccccc2)n1")
"-8.3e-05"
>>> observed_measurement("O=C(CCN1CCCC1Cc1ccccc1)c1ccc2c(c1)OCCO2 (stereo unspecified)")
"-6.5e-05"
>>> observed_measurement("Cc1nc2sc(C)c(C)c2c(=O)o1")
"-4.5e-05"
>>> observed_measurement("CC(NC(=O)c1ccc(F)cc1)C(c1cccs1)N1CCN(C)CC1 (stereo unspecified)")
"-5e-05"
>>> observed_measurement("Cn1nc(-c2ccc(C(=O)NCC3CCCO3)cc2)c2ccccc2c1=O (stereo unspecified)")
"-5.3e-05"

----------
# Assay Summary: blockers of RIG-like receptor reporter activation – cell-based, Sendai virus stimulus, luciferase, 10K MLSCN set, TLR/RLR signaling modifier project, primary screen (AID 602276);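 further: firefly luciferase from ISG56 promoter only with Renilla not read in this screen; 0% = Sendai virus plus DMSO and 100% = medium plus DMSO without virus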
# Condition Description: HEK293 RL24 IRF3 luciferase reporter, at 10 µM, hits give high values
# key: entry, value: inhibition
Readout Name: inhibition (%)

>>> observed_measurement("CCCn1nc(NS(=O)(=O)c2ccccc2)c2cc3ccccc3nc21")
6.34
>>> observed_measurement("O=C(O)C1C2C=CC(O2)C1C(=O)NCc1ccc(Cl)cc1 (stereo not drawn)")
11.9
>>> observed_measurement("CC(C)NC(=O)c1ccccc1NC(=O)c1ccccc1N(C)S(C)(=O)=O")
10.6
>>> observed_measurement("O=C(Cn1c(=O)[nH]c2ccsc2c1=O)NC1CCCCCC1")
17.6
>>> observed_measurement("Clc1ccc(-c2nnc3sc(-c4ccc(Br)o4)nn23)cc1")
6.08
>>> observed_measurement("CCOC(=O)C1CCCN(Cc2nc(N)nc(Nc3ccccc3)n2)C1 (stereo not drawn)")
22.1
>>> observed_measurement("COC(=O)c1ccccc1S(=O)(=O)N(Cc1cc2cc3c(cc2[nH]c1=O)OCO3)C1CCCCC1")
-3.7
>>> observed_measurement("Cc1cc(NC(=O)CSc2nc3ccsc3c(=O)n2NC(=O)c2ccccc2)no1")
-39.7

Origin of the recorded values: PubChem BioAssay
